Taken from the DeepSol protein solubility set.

Assay: soluble on expression in E. coli; label from the status in PepcDB or PDB records
measured_quantity: soluble on expression in E. coli

Identify measured soluble on expression in E. coli associated with "MSDESANPSCISHLSIGTNDFPRARAFYDAVMAALGCKVILEYPGAVAYGKLYPEFWVQAPIDGRPASVGNGSHVGFFADSKAQVDAFHAAALAAGARDEGAPGPRPLYGEPYYGCFIRDLDGHKVEASYWDMSQGFDAHDHAH" not soluble

Identify measured soluble on expression in E. coli associated with "MFSAPLENTMLCNMGGSHEKARARENERMRERERGKEQRTYFATGSLARCQAGSVRRAPGTRRHPGSSTVQGFGTVVSLEANKEMKKEETFFFASLFLYRLGGPLTGTVGYANKTTGR" not soluble

Identify measured soluble on expression in E. coli associated with "GPGSMAASQLIATRFTDLLAEGNIESALKYIANDVVYNTWLGVVYGKDNVEVFLRDNVRFVHHGRNYNRWKQVQHSLDASLKQFTVNDVSGYDESALDVRSYYDSEGYDSQGYATFERDGTIASHAKFAVFHVKVKETVVLRNNKVVLVNVSKRA" not soluble

====

Test: soluble on expression in E. coli; label from the status in PepcDB or PDB records
measured_quantity: soluble on expression in E. coli

Identify measured soluble on expression in E. coli associated with "MKEKGGDSLKYCYQCGLCDSVCPWNRVRQFSMRKIVRQGTFGLTEIEQEDIWRCSTCGTCPSRCPRGVNQIEAGVAMRRIGAEYDVYPGHVGTIRNVVASLTSEGNSLEHHHHHH" not soluble

Identify measured soluble on expression in E. coli associated with "MAHHHHHHSLKEAEVLKYEAFTSSPGKGNPAGVVLQGDDYTEDEMQIIAERAGYSETSFIRKSESADLELRYFTPGHEMNLCGHATVASLYALCEKGMLESGKTYSIQTKAGILPVKISEKDGRIHITLEQASPQFKPFTGDRKKLADALGITDEDFHEDLPIVFGSTGIWTAIVPLKSLEASKKMVPDNKQFPEVLVDLPKASVHPFTFETVHPDSDLHGRHFSSPYSGTIEDPVTGTASGVMGAYMKHYGNAEQHKFIIEQGQEIGKDGKVEIEMNEAGGHVKVNMTGTAVYSETRILKIEG" not soluble

====

Test: soluble on expression in E. coli; label from the status in PepcDB or PDB records
measured_quantity: soluble on expression in E. coli

Identify measured soluble on expression in E. coli associated with "MNVKPLQAKDVAEKVLFGELFILDVRNEADYEDWKIEGKQVSSINKPYFDLLDGVDHIVSELPKDKDVLVVCAKEGSSIFVAEQLTEAGLQNIYYLAGGMKAWSEYVKPIKVGNLKDGGSMYQFNRLGKGCLSYMVISNGEAAVIDAVRTAEAYEEFAKEHGVTIKNVMDTHLHADHISGGRKLAEKVGGTYWLPPKDAEEVVFSYEPLVEGSVITVGGTKIEIDALYSPGHTIGSTSFIVDDSYLLSGDILFVDSIGRPDLAGKAEDWVSDLRNTLYSRYKELSQNLVVLPAHYSKVSEMNESGIVSAKLKDLFANNAGLNIEDEGEFRKVVTENLPPQPNAYEEIRQTNMGKIHPSVDKEREMEIGPNRCAVHE" not soluble

Identify measured soluble on expression in E. coli associated with "MGSDKIHHHHHHMENRKHTSLKDLAQALGVSIPTVSRALKDSPEISRELCAKAKKLAKEMNYRPNPFAMSLRKNAPRIIGVIVPDIVTHFFASILNGIENMAIDNGYFVIITTSHESFEHEKRNIENLVNMRVEGIIACLSQETTDFSHFAALKEINMPLILFDRVCLTDQFSSVIADGAQSAQMATQHLLDNGSKRVAFIGGANHLDIVKRRKHGYLEALRDNRIPIEKELVVCRKIDYEEGQIATETLLSLPQPPDAILAMNDTLAFAAMEVIKRHGLRIPDDIAIIGYTDEQHANYVEPKLSAVSHQTYKMGETACQLLIDQIKGDRTVKQVVIPTHLQIRESSIKENNKKNAVST" not soluble
